Subject Of Test: human recombinant ETA receptor (Homo sapiens, UniProt P25101)
Sequence (P25101 21-427): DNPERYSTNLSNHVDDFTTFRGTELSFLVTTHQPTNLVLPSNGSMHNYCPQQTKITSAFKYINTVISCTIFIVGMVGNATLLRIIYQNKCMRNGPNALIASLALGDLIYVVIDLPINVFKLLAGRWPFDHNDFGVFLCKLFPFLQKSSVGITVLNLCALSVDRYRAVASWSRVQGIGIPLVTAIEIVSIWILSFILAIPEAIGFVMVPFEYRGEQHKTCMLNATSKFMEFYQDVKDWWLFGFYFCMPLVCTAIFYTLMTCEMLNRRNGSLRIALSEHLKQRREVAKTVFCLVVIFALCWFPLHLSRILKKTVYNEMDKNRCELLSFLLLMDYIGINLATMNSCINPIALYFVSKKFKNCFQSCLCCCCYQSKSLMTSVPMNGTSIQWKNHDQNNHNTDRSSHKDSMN
Test Protocol: Inhibition of [125I]ET-1 binding to membranes from CHO cells carrying human ETA receptors
Exercise: state measured IC50 for each of the compounds provided.
Numbers only, in nM.

> print(dat)
                              sample.smiles  result.type  reading
1  COc1ccccc1Oc1c(NS(=O)(=O)Nc2ccc(C(C)C)cc2)nc(-c2ccncc2)nc1OCCOc1ccc(C(F)(F)F)cn1         IC50      286
2  O=S(=O)(Nc1ncnc(OCCOc2ncc(Br)cn2)c1-c1ccc(Cl)cc1)NC1CC1         IC50      8.3
3  COc1ccccc1Oc1c(NS(=O)(=O)NCc2ccccc2)nc(-c2ncccn2)nc1OCCOc1ncccn1         IC50     32.7

Now turn to the next compound.
Hi! What's the reported IC50 for O=S(=O)(NCc1ccccc1)Nc1nc(-c2ncccn2)nc(OCCOc2ncc(Br)cn2)c1-c1ccccc1 on human recombinant ETA receptor (Homo sapiens, UniProt P25101)?
54
